- study target: synthetic amyloid fibrils composed of recombinant Vλ6 protein Wil
- method description: SPR
Square brackets hold non-standard residues; d marks the D form. Ends that are not written are not given here.
Mark Y for ka1 (two-state model, first step) under 400000 M⁻¹ s⁻¹, N if at or over.

Below, 4 binders whose answers are already recorded.
binder	category label
GGGYSKAQKAPAKQAKQPQKAQKAPAKQAKQ [peptide p5(Pro3)]	Y
VYKVKTKVKTKVKTKVKT [peptide p5(sheet)]	N
GGGYSKAQKAQAKQAKQAQKAQKAQAKQAKQ [peptide p5]	N
GGG[dY][dS][dK][dA][dQ][dK][dA][dQ][dA][dK][dQ][dA][dK][dQ][dA][dQ][dK][dA][dQ][dK][dA][dQ][dA][dK][dQ][dA][dK][dQ] [peptide p5(D)]	N

Shift focus to the following entry.
[in] Given the entry GGGYSKGGKGGGKGGKGGGKGGKGGGKGGKG [peptide p5(coil)] , would its reported ka1 (two-state model, first step) be below 400000 M⁻¹ s⁻¹?
[out] Y
